meta.source: paper PMC3871601

Experimental system: HoblOBP3 (Holotrichia oblita, UniProt G9BWQ7)
Sequence (G9BWQ7 entry or part of it): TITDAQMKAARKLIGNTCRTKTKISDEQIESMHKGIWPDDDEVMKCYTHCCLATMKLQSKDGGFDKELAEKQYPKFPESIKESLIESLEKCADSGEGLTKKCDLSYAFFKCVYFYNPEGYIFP
Test protocol: biochemical
Type: binding
Condition notes: pH 7.4, read-out: Int (fluorescence intensity as percent of the initial fluorescence)
Readout type: activity at 24 µM (%)
Your answer is read as %, so omit the unit and give the number.

State, in one line, measured activity at 24 µM of CC(=O)CCC=C(C)C [6-Methyl-5-hepten-2-one]
78

State, in one line, measured activity at 24 µM of O=Cc1ccccc1 [Benzaldehyde]
68

State, in one line, measured activity at 24 µM of CCCCCCCC [Octane]
70

State, in one line, measured activity at 24 µM of CC(=O)/C=C/C1=C(C)CCCC1(C)C [β-Ionone]
36

State, in one line, measured activity at 24 µM of C=C[C@](C)(O)CCC=C(C)C [R-(-)-Linalool]
73

State, in one line, measured activity at 24 µM of CC(C)=CCC/C(C)=C/CO [Geraniol]
79

State, in one line, measured activity at 24 µM of CC1=CCC(O)(C(C)C)CC1 (stereo not shown) [Terpinen-4-ol]
75

State, in one line, measured activity at 24 µM of CC(=O)/C=C/C1C(C)=CCCC1(C)C (stereo not drawn) [α-Ionone]
41

State, in one line, measured activity at 24 µM of CCC/C=C/C=O [trans-2-Hexenal]
74

State, in one line, measured activity at 24 µM of O=C/C=C/c1ccccc1 [Cinnamaldehyde]
64

State, in one line, measured activity at 24 µM of CC/C=C\CCO [cis-3-Hexen-1-ol]
81

State, in one line, measured activity at 24 µM of CC1=CC[C@@H](C(C)(C)O)CC1 [α-Terpineol]
71

State, in one line, measured activity at 24 µM of C=CCc1ccc(O)c(OC)c1 [Eugenol]
97

---

Experimental system: HoblOBP3 (Holotrichia oblita, UniProt G9BWQ7)
Test protocol: biochemical
Type: binding
Condition notes: HoblOBP3; dash = ligand whose IC50 exceeded 50 µM, Ki not given; read-out: Ki (dash)
pKi: −log10 of the molar value.
Readout type: pKi

State, in one line, measured pKi of CCCCCCCCCO [1-Nonanol]
< 4.30

State, in one line, measured pKi of CC1=C(/C=C/C(C)=C/C=C/C(C)=C/CO)C(C)(C)CCC1 [Retinol]
< 4.30

State, in one line, measured pKi of O=CCc1ccccc1 [Benzeneacetaldehyde]
< 4.30

State, in one line, measured pKi of CCCCCCCO [1-Heptanol]
< 4.30

State, in one line, measured pKi of CC[C@H](C)[C@H](N)C(=O)OC [L-Isoleucine methyl ester]
< 4.30

State, in one line, measured pKi of CCCCCCCC [Octane]
< 4.30

State, in one line, measured pKi of CCCCCCO [1-Hexanol]
< 4.30

State, in one line, measured pKi of CCCCCCCCCC=O [1-Decanal]
< 4.30

State, in one line, measured pKi of O=C1C=CCCC1 [2-Cyclohexen-1-one]
< 4.30

State, in one line, measured pKi of OCCc1ccccc1 [Phenethyl alcohol]
< 4.30

State, in one line, measured pKi of CC(C)[C@@H]1CC[C@@H](C)C[C@H]1OC(=O)c1ccccc1O [Menthyl salicylate]
< 4.30

State, in one line, measured pKi of CCOC(=O)CN [Glycine ethyl ester]
< 4.30

---

Experimental system: HoblOBP4 (Holotrichia oblita)
Sequence (G9BWQ8 entry or part of it): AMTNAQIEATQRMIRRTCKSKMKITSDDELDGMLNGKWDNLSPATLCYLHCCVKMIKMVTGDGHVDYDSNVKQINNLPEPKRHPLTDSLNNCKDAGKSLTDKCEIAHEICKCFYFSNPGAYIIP
Test protocol: biochemical
Format: binding
Condition notes: HoblOBP4; calculated from IC50 and K1-NPN; read-out: Ki
Readout type: pKi
Would you please state pKi, meaning minus log10 of the concentration in mol/L, as a bare number?

State, in one line, measured pKi of CCCCCCCO
4.81

State, in one line, measured pKi of CCOC(=O)[C@@H]1CCCN1
4.83

State, in one line, measured pKi of CC(C)(C)C1CCC(O)CC1 (stereo not drawn)
4.85

State, in one line, measured pKi of CC[C@H](C)[C@H](N)C(=O)OC
4.75

State, in one line, measured pKi of CCCCOC(=O)c1ccccc1 [Butyl Benzoate]
5.09

State, in one line, measured pKi of CC/C=C\CCOC(C)=O [(Z)-3-Hexenyl acetate]
4.53

State, in one line, measured pKi of C=CC(O)CCCCC (stereo not drawn)
4.53

State, in one line, measured pKi of CCCCCCOC(=O)c1ccccc1 [Hexyl benzoate]
5.54

State, in one line, measured pKi of OCCc1ccccc1
4.69

State, in one line, measured pKi of CCCOC(=O)c1ccccc1 [Propyl benzoate]
4.83

State, in one line, measured pKi of O=C1C=CCCC1
4.77

State, in one line, measured pKi of CCCCCCCCCO
4.93

---

Experimental system: HoblOBP3 (Holotrichia oblita)
Test protocol: biochemical
Assay type: binding
Condition notes: HoblOBP3; calculated from IC50 and K1-NPN; read-out: Ki
Method: N-phenyl-1-naphthylamine (1-NPN) was selected as a probe to measure the affinity of the 1-NPN fluorescent ligand to proteins. A 1-cm light path quartz cuvette was used, and the fluorescence spectra were recorded on a Lengguang 970 CRT spectrofluorimeter (Shanghai Jingmi, China) at room temperature in a right angle configuration. […] 1-NPN was excited at 337 nm and the emission spectra were recorded between 350 and 550 nm. Spectra were recorded using high-speed scanning. […]
Readout type: Ki (µM)
Your answer is read as µM, so omit the unit and give the number.

State, in one line, measured Ki of CCCCC=O
26.8

---

Experimental system: HoblOBP3 (Holotrichia oblita, UniProt G9BWQ7)
Test protocol: biochemical
Type: binding
Condition notes: pH 7.4; HoblOBP3; at the ligand concentration 24 µM; protein and 1-NPN both 2 µM; read-out: Int (fluorescence intensity as percent of the initial fluorescence)
Please go through the items and note down their activity at 24 µM.
Your answer is read as %, so omit the unit and give the number.

State, in one line, measured activity at 24 µM of CC[C@H](C)[C@H](N)C(=O)OC
68

State, in one line, measured activity at 24 µM of CCCCCCCCCC=O
86

State, in one line, measured activity at 24 µM of CCCOC(=O)c1ccccc1 [Propyl benzoate]
81

State, in one line, measured activity at 24 µM of CCC/C=C/CO [trans-2-Hexenol]
82

State, in one line, measured activity at 24 µM of CCCCCCCO
70

State, in one line, measured activity at 24 µM of C=CC(O)CCCCC (stereo not shown)
86

State, in one line, measured activity at 24 µM of C=CC(=C)CCC=C(C)C
74

---

Please go through the items and note down their Ki.
Experimental system: HoblOBP3 (Holotrichia oblita)
Test protocol: biochemical
Assay type: binding
Condition notes: HoblOBP3; dash = ligand whose IC50 exceeded 50 µM, Ki not given; read-out: Ki (dash)

State, in one line, measured Ki of CCCCOC(=O)c1ccccc1 [Butyl Benzoate]
> 50 µM

State, in one line, measured Ki of CCCCCCCCC [Nonane]
> 50 µM

State, in one line, measured Ki of CCCCCCOC(=O)c1ccccc1 [Hexyl benzoate]
> 50 µM

State, in one line, measured Ki of CCCCCCC=O [1-Heptanal]
> 50 µM

State, in one line, measured Ki of C=CC(O)CCCCC (stereo not shown) [1-Octen-3-ol]
> 50 µM

State, in one line, measured Ki of CCCCCCCCCC [Decane]
> 50 µM

State, in one line, measured Ki of CCCOC(=O)c1ccccc1 [Propyl benzoate]
> 50 µM

---

Experimental system: HoblOBP4 (Holotrichia oblita)
Test protocol: biochemical
Assay type: binding
Condition notes: pH 7.4; HoblOBP4; at the ligand concentration 24 µM; protein and 1-NPN both 2 µM; read-out: Int (fluorescence intensity as percent of the initial fluorescence)
Readout type: activity at 24 µM (%)
Your answer is read as %, so omit the unit and give the number.

State, in one line, measured activity at 24 µM of CCCCC=O
44

State, in one line, measured activity at 24 µM of CCCCCCO
45

State, in one line, measured activity at 24 µM of OCCc1ccccc1
52

State, in one line, measured activity at 24 µM of CC(C)(C)C1CCC(O)CC1 (stereo not shown)
49

State, in one line, measured activity at 24 µM of C=CC(O)CCCCC (stereo not shown)
54

State, in one line, measured activity at 24 µM of C=C(C)C1CC=C(C)CC1 (stereo not shown)
52

State, in one line, measured activity at 24 µM of CCCCCCCCCO
46

State, in one line, measured activity at 24 µM of C=CC(=C)CCC=C(C)C
56

State, in one line, measured activity at 24 µM of CCCCCCOC(=O)c1ccccc1 [Hexyl benzoate]
36

State, in one line, measured activity at 24 µM of CCCCCCCCCC=O
68

State, in one line, measured activity at 24 µM of CC/C=C\CCOC(C)=O [(Z)-3-Hexenyl acetate]
56

State, in one line, measured activity at 24 µM of CCC/C=C\CO [cis-2-Hexen-1-ol]
42

State, in one line, measured activity at 24 µM of CCCOC(=O)c1ccccc1 [Propyl benzoate]
48

State, in one line, measured activity at 24 µM of CCCCCC=O
42

State, in one line, measured activity at 24 µM of O=C1C=CCCC1
49

State, in one line, measured activity at 24 µM of CCOC(=O)CN
50

State, in one line, measured activity at 24 µM of CCCCCCC=O
64

State, in one line, measured activity at 24 µM of CCCCOC(=O)c1ccccc1 [Butyl Benzoate]
40

State, in one line, measured activity at 24 µM of CCCCCCCO
46

State, in one line, measured activity at 24 µM of CC[C@H](C)[C@H](N)C(=O)OC
49

State, in one line, measured activity at 24 µM of CCCCCCC
43

State, in one line, measured activity at 24 µM of CCC/C=C/CO [trans-2-Hexenol]
51
